Biological target: CHEK1 (CHK1) (Homo sapiens, UniProt O14757)
Sequence (O14757 whole entry, species assumed): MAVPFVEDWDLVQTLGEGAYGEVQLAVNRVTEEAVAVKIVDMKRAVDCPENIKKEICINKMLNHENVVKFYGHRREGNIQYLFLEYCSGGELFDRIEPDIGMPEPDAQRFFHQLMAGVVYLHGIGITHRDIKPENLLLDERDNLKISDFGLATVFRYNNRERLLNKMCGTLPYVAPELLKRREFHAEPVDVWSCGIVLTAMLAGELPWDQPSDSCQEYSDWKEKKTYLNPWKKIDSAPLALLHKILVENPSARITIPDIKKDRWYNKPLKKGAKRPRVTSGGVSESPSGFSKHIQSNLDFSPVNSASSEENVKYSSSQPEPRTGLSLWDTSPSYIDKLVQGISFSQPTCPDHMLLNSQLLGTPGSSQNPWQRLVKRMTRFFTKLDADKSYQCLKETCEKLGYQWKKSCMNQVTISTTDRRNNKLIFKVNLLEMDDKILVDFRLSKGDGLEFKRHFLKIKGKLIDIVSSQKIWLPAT
Assay: FRET-based coupled-enzyme protein kinase inhibition assay
Format: biochemical
Details: compound at 10 µM, 1% DMSO
PROPERTY NAME: inhibition at 10 µM (%)

Reference set, count: 2
- SUBSTANCE SMILES: "CC(C)N1CCC(NC(=O)OC[C@H]2O[C@@H](n3cnc4c(N)ncnc43)[C@H](O)[C@@H]2O)CC1"
  inhibition at 10 µM / %: -16
- SUBSTANCE SMILES: "C[C@@H](NC(=O)OC[C@H]1O[C@@H](n2cnc3c(N)ncnc32)[C@H](O)[C@@H]1O)c1ccc(Cl)cc1"
  inhibition at 10 µM / %: -11

[I] Nc1ncnc2c1ncn2[C@@H]1O[C@H](COC(=O)NCCN2CCCC2=O)[C@@H](O)[C@H]1O
[II] Nc1ncnc2c1ncn2[C@@H]1O[C@H](COC(=O)N2CCS(=O)(=O)CC2)[C@@H](O)[C@H]1O
Task: Kindly identify which of I and II has the larger recorded inhibition at 10 µM value. Reply briefly: the label of your chosen item.
Result: II
(II: -8%, I: -14%)

* * *

Biological target: PRKACA (PKA) (Homo sapiens, UniProt P17612)
Experiment: FRET-based coupled-enzyme protein kinase inhibition assay
Assay type: biochemical
Conditions: compound at 10 µM, 1% DMSO
PROPERTY NAME: inhibition at 10 µM (%)

[P] Nc1ncnc2c1ncn2[C@@H]1O[C@H](COC(=O)N2CCN(C(=O)N3CCOCC3)CC2)[C@@H](O)[C@H]1O
[Q] CN1CCN(CCNC(=O)OC[C@H]2O[C@@H](n3cnc4c(N)ncnc43)[C@H](O)[C@@H]2O)CC1
[R] CS(=O)(=O)N1CC2(CCN(C(=O)OC[C@H]3O[C@@H](n4cnc5c(N)ncnc54)[C@H](O)[C@@H]3O)CC2)c2ccccc21
Task: Would you mind ranking these molecules by ascending inhibition at 10 µM? Labels, requested order.
Result: R, P, Q

* * *

Target: TEK (Tie2) (Homo sapiens)
Sequence (Q02763 23-1124, species assumed): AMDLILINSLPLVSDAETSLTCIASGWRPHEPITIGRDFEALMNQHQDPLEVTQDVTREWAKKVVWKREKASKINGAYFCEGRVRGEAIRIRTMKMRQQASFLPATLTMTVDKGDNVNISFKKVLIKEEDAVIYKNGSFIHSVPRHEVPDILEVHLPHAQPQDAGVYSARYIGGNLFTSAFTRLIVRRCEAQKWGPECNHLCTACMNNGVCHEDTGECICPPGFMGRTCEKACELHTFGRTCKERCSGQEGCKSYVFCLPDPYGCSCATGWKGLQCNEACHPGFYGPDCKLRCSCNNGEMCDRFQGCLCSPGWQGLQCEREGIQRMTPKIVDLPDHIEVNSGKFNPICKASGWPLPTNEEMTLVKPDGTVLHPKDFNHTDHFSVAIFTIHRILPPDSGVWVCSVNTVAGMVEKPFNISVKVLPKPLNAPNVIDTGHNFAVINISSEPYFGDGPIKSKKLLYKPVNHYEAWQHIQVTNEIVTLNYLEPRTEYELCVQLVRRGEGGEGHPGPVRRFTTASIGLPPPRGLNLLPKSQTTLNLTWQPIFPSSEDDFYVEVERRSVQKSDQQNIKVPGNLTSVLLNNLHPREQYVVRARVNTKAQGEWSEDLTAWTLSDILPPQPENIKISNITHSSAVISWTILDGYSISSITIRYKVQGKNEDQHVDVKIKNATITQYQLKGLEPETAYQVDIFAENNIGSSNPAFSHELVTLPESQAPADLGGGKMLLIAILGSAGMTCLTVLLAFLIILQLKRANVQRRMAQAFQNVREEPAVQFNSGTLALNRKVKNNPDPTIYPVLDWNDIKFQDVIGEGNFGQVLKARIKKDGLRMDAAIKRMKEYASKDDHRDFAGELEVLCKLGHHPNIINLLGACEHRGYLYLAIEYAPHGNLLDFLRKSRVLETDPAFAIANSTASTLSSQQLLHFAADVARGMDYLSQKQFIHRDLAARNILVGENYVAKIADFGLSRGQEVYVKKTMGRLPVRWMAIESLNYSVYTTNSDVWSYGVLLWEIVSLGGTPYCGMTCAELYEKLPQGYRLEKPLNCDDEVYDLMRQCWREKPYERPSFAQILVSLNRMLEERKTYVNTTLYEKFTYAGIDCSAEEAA
Assay: FRET-based coupled-enzyme protein kinase inhibition assay
Assay type: biochemical
Conditions: compound at 10 µM, 1% DMSO
PROPERTY NAME: inhibition at 10 µM (%)

Reference set, count: 3
- MOLECULE: "Nc1ncnc2c1ncn2[C@@H]1O[C@H](COC(=O)NCCCc2nc3ccccc3[nH]2)[C@@H](O)[C@H]1O [Compound C1]"
  SYSTEM UNDER TEST: "TEK (Tie2) (Homo sapiens)"
  inhibition at 10 µM / %: 3
- MOLECULE: "CN(C)CCNC(=O)OC[C@H]1O[C@@H](n2cnc3c(N)ncnc32)[C@H](O)[C@@H]1O [Compound C85]"
  SYSTEM UNDER TEST: "TEK (Tie2) (Homo sapiens)"
  inhibition at 10 µM / %: 0
- MOLECULE: "CC(C)N1CCC(NC(=O)OC[C@H]2O[C@@H](n3cnc4c(N)ncnc43)[C@H](O)[C@@H]2O)CC1 [Compound C19]"
  SYSTEM UNDER TEST: "TEK (Tie2) (Homo sapiens)"
  inhibition at 10 µM / %: 6

[P] CS(=O)(=O)N1CC2(CCN(C(=O)OC[C@H]3O[C@@H](n4cnc5c(N)ncnc54)[C@H](O)[C@@H]3O)CC2)c2ccccc21 [Compound C98]
[Q] CN1CCN(CCNC(=O)OC[C@H]2O[C@@H](n3cnc4c(N)ncnc43)[C@H](O)[C@@H]2O)CC1 [Compound C46]
[R] Nc1ncnc2c1ncn2[C@@H]1O[C@H](COC(=O)N[C@@H]2CCN(Cc3ccccc3)C2)[C@@H](O)[C@H]1O [Compound C10]
[S] Nc1ncnc2c1ncn2[C@@H]1O[C@H](COC(=O)N2CCC(Cc3ccc(F)cc3)C2)[C@@H](O)[C@H]1O (stereo partly shown) [Compound C66]
Task: List from greatest to least inhibition at 10 µM. Labels, requested order.
Result: P, R, S, Q

* * *

Target: FLT3 (Homo sapiens, UniProt P36888)
Sequence (P36888 27-993, species assumed): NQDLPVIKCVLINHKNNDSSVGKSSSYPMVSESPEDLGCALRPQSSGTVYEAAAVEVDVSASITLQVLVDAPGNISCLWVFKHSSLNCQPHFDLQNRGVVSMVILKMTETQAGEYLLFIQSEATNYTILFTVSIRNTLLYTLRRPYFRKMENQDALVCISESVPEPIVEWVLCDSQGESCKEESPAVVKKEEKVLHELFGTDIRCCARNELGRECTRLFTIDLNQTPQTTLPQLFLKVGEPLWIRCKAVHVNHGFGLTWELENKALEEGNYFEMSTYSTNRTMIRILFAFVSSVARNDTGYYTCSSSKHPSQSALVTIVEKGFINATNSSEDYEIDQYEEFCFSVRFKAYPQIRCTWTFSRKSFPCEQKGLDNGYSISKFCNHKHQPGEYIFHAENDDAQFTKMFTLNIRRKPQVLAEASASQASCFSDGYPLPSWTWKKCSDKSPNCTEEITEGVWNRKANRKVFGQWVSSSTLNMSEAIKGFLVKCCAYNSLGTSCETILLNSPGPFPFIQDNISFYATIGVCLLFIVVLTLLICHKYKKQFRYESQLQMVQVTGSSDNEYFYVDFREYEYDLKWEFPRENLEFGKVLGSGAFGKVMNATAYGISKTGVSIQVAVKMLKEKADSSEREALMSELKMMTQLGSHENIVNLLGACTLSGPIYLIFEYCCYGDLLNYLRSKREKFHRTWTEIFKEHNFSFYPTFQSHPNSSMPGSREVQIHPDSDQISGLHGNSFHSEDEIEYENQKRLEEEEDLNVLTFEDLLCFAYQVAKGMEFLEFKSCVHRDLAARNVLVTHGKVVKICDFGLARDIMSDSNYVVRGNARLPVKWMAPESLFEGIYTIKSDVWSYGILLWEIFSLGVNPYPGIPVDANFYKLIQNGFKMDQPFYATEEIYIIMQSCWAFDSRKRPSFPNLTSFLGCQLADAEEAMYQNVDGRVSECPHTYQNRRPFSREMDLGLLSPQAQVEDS
Assay: FRET-based coupled-enzyme protein kinase inhibition assay
Type: biochemical
Details: compound at 10 µM, 1% DMSO
PROPERTY NAME: inhibition at 10 µM (%)

Reference set, count: 5
- COMPOUND: "Nc1ncnc2c1ncn2[C@@H]1O[C@H](COC(=O)N2CCC(Cc3ccc(F)cc3)C2)[C@@H](O)[C@H]1O (stereo partly shown) [Compound C66]"
  inhibition at 10 µM [%]: 20
- COMPOUND: "Nc1ncnc2c1ncn2[C@@H]1O[C@H](COC(=O)N2CCS(=O)(=O)CC2)[C@@H](O)[C@H]1O [Compound C100]"
  inhibition at 10 µM [%]: 9
- COMPOUND: "Nc1ncnc2c1ncn2[C@@H]1O[C@H](COC(=O)N2CCN(Cc3ccccc3)CC2CO)[C@@H](O)[C@H]1O (stereo partly shown) [Compound C13]"
  inhibition at 10 µM [%]: 12
- COMPOUND: "Nc1ncnc2c1ncn2[C@@H]1O[C@H](COC(=O)N2CCN(CCc3ccccc3)CC2)[C@@H](O)[C@H]1O [Compound C26]"
  inhibition at 10 µM [%]: 18
- COMPOUND: "Nc1ncnc2c1ncn2[C@@H]1O[C@H](COC(=O)N2CCN(C(=O)N3CCOCC3)CC2)[C@@H](O)[C@H]1O [Compound C89]"
  inhibition at 10 µM [%]: 10

[1] Nc1ncnc2c1ncn2[C@@H]1O[C@H](COC(=O)NCCCc2nc3ccccc3[nH]2)[C@@H](O)[C@H]1O [Compound C1]
[2] CC(C)N1CCC(NC(=O)OC[C@H]2O[C@@H](n3cnc4c(N)ncnc43)[C@H](O)[C@@H]2O)CC1 [Compound C19]
Task: For the pair 1 and 2 , which member has the lower inhibition at 10 µM number? Reply briefly: the label of your chosen item.
Result: 1

* * *

Molecular target: UniProt:P00519
Sequence (P00519 whole entry, species assumed): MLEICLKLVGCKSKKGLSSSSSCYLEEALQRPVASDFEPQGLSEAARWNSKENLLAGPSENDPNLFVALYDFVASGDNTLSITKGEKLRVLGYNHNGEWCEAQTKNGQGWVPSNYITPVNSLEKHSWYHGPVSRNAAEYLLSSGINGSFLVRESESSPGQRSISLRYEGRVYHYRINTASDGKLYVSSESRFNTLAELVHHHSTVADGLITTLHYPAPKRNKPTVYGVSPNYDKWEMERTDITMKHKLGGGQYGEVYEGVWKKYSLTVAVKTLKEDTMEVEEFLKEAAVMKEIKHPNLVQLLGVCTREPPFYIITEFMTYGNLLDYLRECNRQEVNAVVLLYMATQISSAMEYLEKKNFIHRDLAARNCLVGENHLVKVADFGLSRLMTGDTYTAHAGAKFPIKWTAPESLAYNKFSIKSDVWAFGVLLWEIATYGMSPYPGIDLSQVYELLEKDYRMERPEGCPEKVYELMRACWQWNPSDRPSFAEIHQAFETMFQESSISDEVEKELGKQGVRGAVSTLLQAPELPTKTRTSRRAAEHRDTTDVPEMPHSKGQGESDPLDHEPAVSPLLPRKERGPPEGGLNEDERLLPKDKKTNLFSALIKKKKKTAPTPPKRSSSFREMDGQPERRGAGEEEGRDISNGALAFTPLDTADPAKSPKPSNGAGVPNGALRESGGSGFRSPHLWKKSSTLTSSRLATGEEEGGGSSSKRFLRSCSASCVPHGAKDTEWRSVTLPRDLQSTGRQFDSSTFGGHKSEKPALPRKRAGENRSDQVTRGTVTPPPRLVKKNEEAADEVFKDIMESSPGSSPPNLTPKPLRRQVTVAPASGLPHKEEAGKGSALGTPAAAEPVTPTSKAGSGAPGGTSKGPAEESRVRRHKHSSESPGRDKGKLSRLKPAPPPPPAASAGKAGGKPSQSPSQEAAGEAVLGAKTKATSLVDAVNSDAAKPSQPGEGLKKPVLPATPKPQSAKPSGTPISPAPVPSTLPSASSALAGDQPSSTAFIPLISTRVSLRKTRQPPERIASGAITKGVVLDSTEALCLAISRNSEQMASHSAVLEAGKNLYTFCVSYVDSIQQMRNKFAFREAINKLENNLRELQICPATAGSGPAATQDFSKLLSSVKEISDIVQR
Test: FRET-based coupled-enzyme protein kinase inhibition assay
Format: biochemical
Settings: compound at 10 µM, 1% DMSO
PROPERTY NAME: inhibition at 10 µM (%)

Reference set, count: 7
- COMPOUND: "Nc1ncnc2c1ncn2[C@@H]1O[C@H](COC(=O)NC[C@H](O)CO)[C@@H](O)[C@H]1O"
  SYSTEM UNDER TEST: "UniProt:P00519"
  RESULT UNITS: "%"
  inhibition at 10 µM: 22
- COMPOUND: "CN(C)CCNC(=O)OC[C@H]1O[C@@H](n2cnc3c(N)ncnc32)[C@H](O)[C@@H]1O"
  SYSTEM UNDER TEST: "UniProt:P00519"
  RESULT UNITS: "%"
  inhibition at 10 µM: -2
- COMPOUND: "C[C@@H](NC(=O)OC[C@H]1O[C@@H](n2cnc3c(N)ncnc32)[C@H](O)[C@@H]1O)c1ccc(Cl)cc1"
  SYSTEM UNDER TEST: "UniProt:P00519"
  RESULT UNITS: "%"
  inhibition at 10 µM: 11
- COMPOUND: "Nc1ncnc2c1ncn2[C@@H]1O[C@H](COC(=O)N2CCS(=O)(=O)CC2)[C@@H](O)[C@H]1O"
  SYSTEM UNDER TEST: "UniProt:P00519"
  RESULT UNITS: "%"
  inhibition at 10 µM: 1
- COMPOUND: "Nc1ncnc2c1ncn2[C@@H]1O[C@H](COC(=O)N2CCC(Cc3ccc(F)cc3)C2)[C@@H](O)[C@H]1O (stereo partly drawn)"
  SYSTEM UNDER TEST: "UniProt:P00519"
  RESULT UNITS: "%"
  inhibition at 10 µM: -2
- COMPOUND: "N#CCCN1CCN(C(=O)OC[C@H]2O[C@@H](n3cnc4c(N)ncnc43)[C@H](O)[C@@H]2O)CC1"
  SYSTEM UNDER TEST: "UniProt:P00519"
  RESULT UNITS: "%"
  inhibition at 10 µM: -7
- COMPOUND: "Nc1ncnc2c1ncn2[C@@H]1O[C@H](COC(=O)N2CCN(Cc3ccccc3)CC2CO)[C@@H](O)[C@H]1O (stereo partly drawn)"
  SYSTEM UNDER TEST: "UniProt:P00519"
  RESULT UNITS: "%"
  inhibition at 10 µM: 0

[a] CS(=O)(=O)N1CC2(CCN(C(=O)OC[C@H]3O[C@@H](n4cnc5c(N)ncnc54)[C@H](O)[C@@H]3O)CC2)c2ccccc21
[b] Nc1ncnc2c1ncn2[C@@H]1O[C@H](COC(=O)N[C@@H]2CCN(Cc3ccccc3)C2)[C@@H](O)[C@H]1O
Task: For the pair a and b , which member has the lower inhibition at 10 µM number? Reply briefly: the label of your chosen item.
Result: b

* * *

Target: FGFR1 (Homo sapiens, UniProt P11362)
Sequence (P11362 22-822, species assumed): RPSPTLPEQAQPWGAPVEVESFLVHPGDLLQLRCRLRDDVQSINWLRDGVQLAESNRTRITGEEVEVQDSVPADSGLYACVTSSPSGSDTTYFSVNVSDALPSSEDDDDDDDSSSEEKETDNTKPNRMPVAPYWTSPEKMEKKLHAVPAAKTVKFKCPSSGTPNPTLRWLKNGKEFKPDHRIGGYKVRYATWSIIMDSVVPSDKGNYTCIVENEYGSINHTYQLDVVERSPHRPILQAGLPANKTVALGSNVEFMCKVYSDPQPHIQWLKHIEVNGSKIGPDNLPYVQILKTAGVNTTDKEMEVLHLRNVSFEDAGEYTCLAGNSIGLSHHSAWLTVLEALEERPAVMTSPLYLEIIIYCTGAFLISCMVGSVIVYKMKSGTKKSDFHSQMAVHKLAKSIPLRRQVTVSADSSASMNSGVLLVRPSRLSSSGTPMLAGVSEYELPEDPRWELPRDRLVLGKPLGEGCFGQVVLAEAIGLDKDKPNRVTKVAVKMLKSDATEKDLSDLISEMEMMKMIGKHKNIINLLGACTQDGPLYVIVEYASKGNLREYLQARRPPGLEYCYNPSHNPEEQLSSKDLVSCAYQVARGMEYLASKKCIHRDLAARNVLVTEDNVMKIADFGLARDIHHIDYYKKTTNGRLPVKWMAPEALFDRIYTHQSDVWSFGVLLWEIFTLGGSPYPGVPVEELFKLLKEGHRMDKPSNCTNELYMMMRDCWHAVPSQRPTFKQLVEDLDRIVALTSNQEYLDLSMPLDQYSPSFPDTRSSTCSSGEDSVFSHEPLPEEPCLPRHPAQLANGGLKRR
Assay: FRET-based coupled-enzyme protein kinase inhibition assay
Format: biochemical
Settings: compound at 10 µM, 1% DMSO
PROPERTY NAME: inhibition at 10 µM (%)

Reference set, count: 10
- COMPOUND: "Nc1ncnc2c1ncn2[C@@H]1O[C@H](COC(=O)N2CCC(Cc3ccc(F)cc3)C2)[C@@H](O)[C@H]1O (stereo partly shown) [Compound C66]"
  PROPERTY NAME: "inhibition at 10 µM"
  NUMERIC READOUT: 13
- COMPOUND: "Nc1ncnc2c1ncn2[C@@H]1O[C@H](COC(=O)NCCN2CCCC2=O)[C@@H](O)[C@H]1O [Compound C22]"
  PROPERTY NAME: "inhibition at 10 µM"
  NUMERIC READOUT: 0
- COMPOUND: "C[C@@H](NC(=O)OC[C@H]1O[C@@H](n2cnc3c(N)ncnc32)[C@H](O)[C@@H]1O)c1ccc(Cl)cc1 [Compound C4]"
  PROPERTY NAME: "inhibition at 10 µM"
  NUMERIC READOUT: 6
- COMPOUND: "Nc1ncnc2c1ncn2[C@@H]1O[C@H](COC(=O)N2CCC[C@H]2CO)[C@@H](O)[C@H]1O [Compound C9]"
  PROPERTY NAME: "inhibition at 10 µM"
  NUMERIC READOUT: 3
- COMPOUND: "CN(C)CCNC(=O)OC[C@H]1O[C@@H](n2cnc3c(N)ncnc32)[C@H](O)[C@@H]1O [Compound C85]"
  PROPERTY NAME: "inhibition at 10 µM"
  NUMERIC READOUT: 4
- COMPOUND: "CS(=O)(=O)N1CC2(CCN(C(=O)OC[C@H]3O[C@@H](n4cnc5c(N)ncnc54)[C@H](O)[C@@H]3O)CC2)c2ccccc21 [Compound C98]"
  PROPERTY NAME: "inhibition at 10 µM"
  NUMERIC READOUT: 9
- COMPOUND: "Nc1ncnc2c1ncn2[C@@H]1O[C@H](COC(=O)N2CCN(C(=O)N3CCOCC3)CC2)[C@@H](O)[C@H]1O [Compound C89]"
  PROPERTY NAME: "inhibition at 10 µM"
  NUMERIC READOUT: 16
- COMPOUND: "CN1CCN(CCNC(=O)OC[C@H]2O[C@@H](n3cnc4c(N)ncnc43)[C@H](O)[C@@H]2O)CC1 [Compound C46]"
  PROPERTY NAME: "inhibition at 10 µM"
  NUMERIC READOUT: 9
- COMPOUND: "CC(C)N1CCC(NC(=O)OC[C@H]2O[C@@H](n3cnc4c(N)ncnc43)[C@H](O)[C@@H]2O)CC1 [Compound C19]"
  PROPERTY NAME: "inhibition at 10 µM"
  NUMERIC READOUT: 6
- COMPOUND: "Nc1ncnc2c1ncn2[C@@H]1O[C@H](COC(=O)N2CCN(Cc3ccccc3)CC2CO)[C@@H](O)[C@H]1O (stereo partly shown) [Compound C13]"
  PROPERTY NAME: "inhibition at 10 µM"
  NUMERIC READOUT: 5

[1] Nc1ncnc2c1ncn2[C@@H]1O[C@H](COC(=O)NC[C@H](O)CO)[C@@H](O)[C@H]1O [Compound C8]
[2] Nc1ncnc2c1ncn2[C@@H]1O[C@H](COC(=O)N2CCN(CCc3ccccc3)CC2)[C@@H](O)[C@H]1O [Compound C26]
Task: For the pair 1 and 2 , which member has the lower inhibition at 10 µM number? Reply briefly: the label of your chosen item.
Result: 2

[P] Nc1ncnc2c1ncn2[C@@H]1O[C@H](COC(=O)NCCCc2nc3ccccc3[nH]2)[C@@H](O)[C@H]1O [Compound C1]
[Q] N#CCCN1CCN(C(=O)OC[C@H]2O[C@@H](n3cnc4c(N)ncnc43)[C@H](O)[C@@H]2O)CC1 [Compound C70]
Task: For the pair P and Q , which member has the lower inhibition at 10 µM number? Reply briefly: the label of your chosen item.
Result: Q
(Q: 1%, P: 21%)

[A] Nc1ncnc2c1ncn2[C@@H]1O[C@H](COC(=O)N[C@@H]2CCN(Cc3ccccc3)C2)[C@@H](O)[C@H]1O [Compound C10]
[B] Nc1ncnc2c1ncn2[C@@H]1O[C@H](COC(=O)N2CCS(=O)(=O)CC2)[C@@H](O)[C@H]1O [Compound C100]
Task: Kindly identify which of A and B has the larger recorded inhibition at 10 µM value. Reply briefly: the label of your chosen item.
Result: A
